Cited source: PubChem BioAssay (Tox21)

- Experimental System: Voltage-gated inwardly rectifying potassium channel KCNH2 (Homo sapiens) (UniProt Q12809)
- Sequence (Q12809 whole entry, looked up): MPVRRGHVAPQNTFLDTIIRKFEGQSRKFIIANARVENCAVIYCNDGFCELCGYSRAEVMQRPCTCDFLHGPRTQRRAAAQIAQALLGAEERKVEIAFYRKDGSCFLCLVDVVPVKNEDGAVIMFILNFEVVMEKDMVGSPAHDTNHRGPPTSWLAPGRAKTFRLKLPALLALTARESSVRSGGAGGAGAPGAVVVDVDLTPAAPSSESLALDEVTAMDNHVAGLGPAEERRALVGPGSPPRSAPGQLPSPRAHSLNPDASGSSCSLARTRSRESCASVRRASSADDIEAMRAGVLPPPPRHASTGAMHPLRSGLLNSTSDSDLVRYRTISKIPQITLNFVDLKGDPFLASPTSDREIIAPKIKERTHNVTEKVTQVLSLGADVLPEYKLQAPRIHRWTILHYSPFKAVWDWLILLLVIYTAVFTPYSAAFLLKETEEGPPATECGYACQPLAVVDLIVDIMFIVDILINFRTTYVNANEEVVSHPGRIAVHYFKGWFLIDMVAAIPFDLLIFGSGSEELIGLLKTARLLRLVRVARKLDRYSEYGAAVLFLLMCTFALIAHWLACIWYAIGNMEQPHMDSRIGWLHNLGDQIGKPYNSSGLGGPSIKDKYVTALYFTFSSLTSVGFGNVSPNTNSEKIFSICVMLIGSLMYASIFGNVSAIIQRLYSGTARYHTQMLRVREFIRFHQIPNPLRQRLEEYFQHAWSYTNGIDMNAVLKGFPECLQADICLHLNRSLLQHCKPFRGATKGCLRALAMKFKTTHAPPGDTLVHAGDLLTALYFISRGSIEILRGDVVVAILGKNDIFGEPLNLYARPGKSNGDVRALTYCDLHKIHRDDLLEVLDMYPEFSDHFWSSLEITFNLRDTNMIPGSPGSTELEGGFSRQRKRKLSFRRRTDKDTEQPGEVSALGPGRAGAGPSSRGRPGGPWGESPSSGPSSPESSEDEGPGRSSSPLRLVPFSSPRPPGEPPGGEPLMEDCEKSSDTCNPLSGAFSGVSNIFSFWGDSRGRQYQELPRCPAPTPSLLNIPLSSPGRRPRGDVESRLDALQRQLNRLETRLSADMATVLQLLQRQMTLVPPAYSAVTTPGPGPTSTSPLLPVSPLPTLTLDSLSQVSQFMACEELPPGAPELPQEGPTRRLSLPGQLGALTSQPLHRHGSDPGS
- Assay Name: Human Ether-a-go-go-Related Gene (hERG) channel small molecule antagonists: fluorescence cell-based qHTS assay (AID 1671200); also: nearly all actives have a fitted effect of over 50% in size
- Details: hERG-U2OS cells, FluxOR thallium flux fluorescence; series mostly up to 76.8 µM
- Excerpt: National Center for Advancing Translational Sciences [NCATS] U.S. Environmental Protection Agency [EPA] National Institutes of Environmental Health Sciences [NIEHS] National Toxicology Program [NTP] U.S. Food and Drug Administration [FDA] Mutations in the hERG channel cause Long QT (LQT) syndrome. LQT syndrome is a cardiac disorder which can cause ventricle arrhythmia and sudden death. Additionally, compounds which block the hERG channel can cause acquired LQT syndrome. […]
Results filed as inconclusive are left out. The source made the active and inactive calls. Calls follow the shape of the dose curve; as a rule, active = well fitted inhibition curve with a large enough effect in the repeat runs; inconclusive = weak or mixed curves; inactive = flat fitted curve, though single readings scatter.
Possible outcomes: active, inactive

{"Compound": "Cc1ccc(O)c(C(C)(C)C)c1", "Discrete Label": "inactive"}
{"Compound": "O=C1c2ccccc2Cc2ccccc21", "Discrete Label": "inactive"}
{"Compound": "CSc1ccc2c(c1)C(N1CCN(C)CC1)Cc1ccccc1S2 (stereo unspecified)", "Discrete Label": "active"}
{"Compound": "CCCCCCCCCOC(=O)c1ccc(O)cc1", "Discrete Label": "inactive"}
{"Compound": "Nc1c2ccccc2nc2ccccc12", "Discrete Label": "inactive"}
{"Compound": "Cc1cccc(CN2CCN(C(c3ccccc3)c3ccc(Cl)cc3)CC2)c1 (stereo unspecified)", "Discrete Label": "active"}
{"Compound": "CCCC/C=C/CCCCO", "Discrete Label": "inactive"}
{"Compound": "CCN(C(=O)N(CC)c1ccccc1)c1ccccc1", "Discrete Label": "inactive"}
{"Compound": "C/C=C(\\C)C(=O)OCc1ccccc1", "Discrete Label": "inactive"}
{"Compound": "CCN(CC)CCCC(C)Nc1c2ccc(Cl)cc2nc2ccc(OC)cc12 (stereo unspecified)", "Discrete Label": "inactive"}
{"Compound": "Cc1cc(CCN2CCN(c3nsc4ccccc34)CC2)cc2c1NC(=O)CC2(C)C", "Discrete Label": "active"}
{"Compound": "CCCCN1CCCC[C@H]1C(=O)Nc1c(C)cccc1C", "Discrete Label": "inactive"}
{"Compound": "CCOC(=O)c1nc(C(Cl)(Cl)Cl)n(-c2ccc(Cl)cc2Cl)n1", "Discrete Label": "active"}
{"Compound": "CSc1ccc(C(=O)c2[nH]c(=O)[nH]c2C)cc1", "Discrete Label": "inactive"}
{"Compound": "C/C(=C(/OCCOc1ccc(Cl)cc1)c1ccc(Cl)cc1Cl)n1ccnc1", "Discrete Label": "active"}
{"Compound": "C=CC(=O)OCCn1c(=O)n(CCOC(=O)C=C)c(=O)n(CCOC(=O)C=C)c1=O", "Discrete Label": "inactive"}
{"Compound": "O=C1CCCc2c1cc1ccc3cccc4ccc2c1c34", "Discrete Label": "inactive"}
{"Compound": "COc1c(C)c2c(c(O)c1C/C=C(\\C)CCC(=O)O)C(=O)OC2", "Discrete Label": "inactive"}
{"Compound": "Cc1cc(O)c(Cl)c(C)c1Cl", "Discrete Label": "inactive"}
{"Compound": "ON=C1CCCC1", "Discrete Label": "inactive"}
{"Compound": "CCCC1O[C@@H]2C[C@H]3[C@@H]4CCC5=CC(=O)C=C[C@]5(C)[C@H]4[C@@H](O)C[C@]3(C)[C@]2(C(=O)CO)O1 (stereo partly specified)", "Discrete Label": "inactive"}
{"Compound": "Cc1ccc2oc(CN(Cc3ccccc3)C(=O)Nc3c(F)cc(F)cc3F)c(-c3ccc(Cl)cc3)c2c1", "Discrete Label": "inactive"}
{"Compound": "Nc1ccccc1O", "Discrete Label": "inactive"}
{"Compound": "O=C(NO)C1(NS(=O)(=O)c2ccc(Oc3ccc(F)cc3)cc2)CCOCC1", "Discrete Label": "inactive"}
{"Compound": "S=c1[nH]c2ccccc2s1", "Discrete Label": "inactive"}
{"Compound": "CCCCCOc1ccccc1/C(=C\\SC)n1ccnc1", "Discrete Label": "active"}
